TESTED ON: Endothelin receptor type A (Oryctolagus cuniculus)
TEST SUMMARY: Inhibition of endothelin A receptor in New Zealand white rabbit aortic rings assessed as inhibition of endothelin-1-induced vascular contraction at 10^-6 M
Entry flag: YES if inhibition reaches 20%; NO if it does not.

For this molecule, is measured inhibition 20% or higher? Cc1cc(C)nc(OC2C(=O)OCC2(c2ccccc2)c2ccccc2)n1 (stereo unspecified) NO

Exam item: decide whether the reported inhibition for `COc1ccccc1Oc1c(NS(=O)(=O)c2ccc(C(C)(C)C)cc2)nc(-c2ncccn2)nc1OCCO` is at least 20%. YES

Is it the case that Cc1cc(C)nc(OC(C(=O)O)C(COC(=O)OC(C)C)(c2ccccc2)c2ccccc2)n1 (stereo unspecified) has inhibition reaching or exceeding 20%? YES

Entry CCOC(=O)OCC(c1ccccc1)(c1ccccc1)C(Oc1nc(C)cc(C)n1)C(=O)O (stereo unspecified) : is its inhibition no less than 20%? NO

Entry C=CCOCC(c1ccccc1)(c1ccccc1)C(Oc1nc(C)cc(C)n1)C(=O)O (stereo unspecified) : is its inhibition no less than 20%? YES

hey, is inhibition for this one >= 20%? `COC(c1ccccc1)(c1ccccc1)[C@H](Oc1nc(C)cc(C)n1)C(=O)O` YES
